System: Pseudomonas aeruginosa
protocol description: Antimicrobial activity against Pseudomonas aeruginosa assessed as inhibition of bacterial growth incubated for overnight by CLSI method
Assay type: functional
assay endpoint: MIC (µM)
Answers are plain numbers, in µM.

Check out these entries, answers already filled in.
>  <substance smiles>
CC[C@H]1OC(=O)[C@H](C)[C@@H](O[C@H]2C[C@@](C)(OC)[C@@H](O)[C@H](C)O2)[C@H](C)[C@@H](O[C@@H]2O[C@H](C)C[C@H](N(C)C)[C@H]2O)[C@](C)(O)C[C@@H](C)C(=O)[C@H](C)[C@@H](O)[C@]1(C)O

>  <unit name>
µM

>  <MIC>
200

$$$$
>  <substance smiles>
CO[C@H]1/C=C/O[C@@]2(C)Oc3c(C)c(O)c4c(O)c(c(/C=N/N5CCN(C)CC5)c(O)c4c3C2=O)NC(=O)/C(C)=C\C=C\[C@H](C)[C@H](O)[C@@H](C)[C@@H](O)[C@@H](C)[C@H](OC(C)=O)[C@@H]1C

>  <unit name>
µM

>  <MIC>
25

$$$$

For every record below, what is its MIC?
1. c1ccc(CN2CCOCCOCCN(CCCCCCCCCCCCCCN3CCOCCOCCN(CCCCCCCCCCCCCCN4CCOCCOCCN(Cc5ccccc5)CCOCCOCC4)CCOCCOCC3)CCOCCOCC2)cc1
2. CN(C)[C@@H]1C(O)=C(C(N)=O)C(=O)[C@@]2(O)C(O)=C3C(=O)c4c(O)cccc4[C@@](C)(O)[C@H]3C[C@@H]12
3. c1ccc(CN2CCOCCOCCN(CCCCCCCCCCCCCCCCN3CCOCCOCCN(CCCCCCCCCCCCCCCCN4CCOCCOCCN(Cc5ccccc5)CCOCCOCC4)CCOCCOCC3)CCOCCOCC2)cc1

Response:
2
12
2
